experiment: Cytotoxicity against human HepG2(2.2.15) cells; assay type: cell-based
PROPERTY_MEASURED: CC50 (µM)
Use µM as the unit, but write only the number.

INPUT: Given the entry CC1(C)[C@@H](O)CC[C@]2(C)[C@H]3C(=O)C=C4[C@@H]5C[C@@](C)(C(=O)O)CC[C@]5(C)CC[C@@]4(C)[C@]3(C)CC[C@@H]12 [ENOXOLONE] , report its measured CC50.
OUTPUT: 55.1

INPUT: Let us now turn to "CC1(C)[C@@H](O)CC[C@]2(C)[C@H]3CC=C4[C@@H]5C[C@@](C)(C(=O)OCc6ccc(Br)cc6F)CC[C@]5(C)CC[C@@]4(C)[C@]3(C)CC[C@@H]12"
OUTPUT: 1150

INPUT: Let us now turn to "CC1(C)[C@@H](O)CC[C@]2(C)[C@H]3C(=O)C=C4[C@@H]5C[C@@](C)(C(=O)OCc6ccc(S(C)(=O)=O)cc6)CC[C@]5(C)CC[C@@]4(C)[C@]3(C)CC[C@@H]12"
OUTPUT: 1030

INPUT: Let us now turn to "CCCC(=O)O[C@H]1CC[C@]2(C)[C@H]3C(=O)C=C4[C@@H]5C[C@@](C)(C(=O)O)CC[C@]5(C)CC[C@@]4(C)[C@]3(C)CC[C@H]2C1(C)C"
OUTPUT: 119

###

Reported Ratio CC50/IC50 values for the following compounds.
experiment: Selectivity index, ratio of CC50 for human HepG2(2.2.15) cells to IC50 for HBV by viral DNA replication detection assay; format: functional

Here are 3 compounds together with their reported answers.
[
  {
    "COMPOUND": "CC1(C)[C@@H](O)CC[C@]2(C)[C@H]3C(=O)C=C4[C@@H]5C[C@@](C)(C(=O)OCCOc6ccccc6)CC[C@]5(C)CC[C@@]4(C)[C@]3(C)CC[C@@H]12",
    "Ratio CC50/IC50": 7.1
  },
  {
    "COMPOUND": "CC(=O)O[C@H]1CC[C@]2(C)[C@H]3C(=O)C=C4[C@@H]5C[C@@](C)(C(=O)O)CC[C@]5(C)CC[C@@]4(C)[C@]3(C)CC[C@H]2C1(C)C",
    "Ratio CC50/IC50": 4.3
  },
  {
    "COMPOUND": "CCC(=O)O[C@H]1CC[C@]2(C)[C@H]3C(=O)C=C4[C@@H]5C[C@@](C)(C(=O)O)CC[C@]5(C)CC[C@@]4(C)[C@]3(C)CC[C@H]2C1(C)C [GLYCYRRHETINIC ACID PROPIONATE]",
    "Ratio CC50/IC50": 2.2
  }
]

INPUT: Given the entry "CC1(C)C(=O)CC[C@]2(C)[C@H]3C(=O)C=C4[C@@H]5C[C@@](C)(C(=O)O)CC[C@]5(C)CC[C@@]4(C)[C@]3(C)CC[C@@H]12" , report its measured Ratio CC50/IC50.
OUTPUT: 2.5

INPUT: Let us now turn to "CC1(C)[C@@H](O)CC[C@]2(C)[C@H]3C(=O)C=C4[C@@H]5C[C@@](C)(C(=O)OCCCBr)CC[C@]5(C)CC[C@@]4(C)[C@]3(C)CC[C@@H]12"
OUTPUT: 5.6

###

test: Cytotoxicity against human HepG2(2.2.15) cells; assay type: cell-based
PROPERTY_MEASURED: CC50 (µM)
Use µM as the unit, but write only the number.

[
  {
    "COMPOUND": "CC1(C)C(=O)CC[C@]2(C)[C@H]3C(=O)C=C4[C@@H]5C[C@@](C)(C(=O)O)CC[C@]5(C)CC[C@@]4(C)[C@]3(C)CC[C@@H]12",
    "CC50 (µM)": 467
  },
  {
    "COMPOUND": "CC1(C)[C@@H](O)CC[C@]2(C)[C@H]3C(=O)C=C4[C@@H]5C[C@@](C)(C(=O)OCc6cccnc6)CC[C@]5(C)CC[C@@]4(C)[C@]3(C)CC[C@@H]12",
    "CC50 (µM)": 321
  },
  {
    "COMPOUND": "CC1(C)[C@@H](O)CC[C@]2(C)[C@H]3CC=C4[C@@H]5C[C@@](C)(C(=O)O)CC[C@]5(C)CC[C@@]4(C)[C@]3(C)CC[C@@H]12",
    "CC50 (µM)": 162
  },
  {
    "COMPOUND": "CC1(C)[C@@H](O)CC[C@]2(C)[C@H]3C(=O)C=C4[C@@H]5C[C@@](C)(C(=O)OC6CCC6)CC[C@]5(C)CC[C@@]4(C)[C@]3(C)CC[C@@H]12",
    "CC50 (µM)": 742
  },
  {
    "COMPOUND": "CCOC(=O)CCCOC(=O)[C@@]1(C)CC[C@]2(C)CC[C@]3(C)C(=CC(=O)[C@@H]4[C@@]5(C)CC[C@H](O)C(C)(C)[C@@H]5CC[C@]43C)[C@@H]2C1",
    "CC50 (µM)": 53.3
  }
]

Now take the following compound into account.
INPUT: Given the entry "CC1(C)[C@@H](O)CC[C@]2(C)[C@H]3C(=O)C=C4[C@@H]5C[C@@](C)(C(=O)OCCOc6ccccc6)CC[C@]5(C)CC[C@@]4(C)[C@]3(C)CC[C@@H]12" , report its measured CC50.
OUTPUT: 101

Each recorded value in this set is attributed to ChEMBL document CHEMBL2021793.
